target-system: Cytochrome P450 2C9 (Homo sapiens)
assay-info: Cytochrome panel assay with activity outcomes
test-context: recombinant CYP, pro-luciferin dealkylation, luminescence, p450-cyp2c9; series mostly up to 57.1 µM
In all, about 16,000 compounds went through this assay and about 4,000 (25%) were called active. About 26% were inconclusive and are not listed. The call rests on the fitted dose curve; in most records, active means well fitted curve in the direction sought with a large enough effect; inconclusive means small, poorly fitted or top-dose-only effect, or effect the other way; inactive means no such curve, though single readings can be large or run the other way. The list is a sample of the results.
Tick one outcome: yes (1) (active), no (0) (inactive)

I'd appreciate the recorded outcome for `O=C(CCc1ccc(O)cc1)c1c(O)cc(O)cc1O` from this test.
yes (1)

# fetch the recorded call for `COc1cc(CNCc2ccccn2)ccc1OCc1ccc(Cl)cc1Cl` here
no (0)

// return assay outcome for `O=c1oc2cc(Oc3ccc(C(F)(F)F)cc3[N+](=O)[O-])ccc2c2c1CCCC2`
yes (1)

Test call for this molecule, please: `C=CCN1C(=CCO)[C@H]2C[C@H]3[C@@H]1CC[C@@]31c3ccccc3N3C=C4[C@@H]5N(/C=C/2[C@H]31)c1ccccc1[C@]51CC[C@H]2[C@H]1C[C@@H]4/C(=C/CO)N2CC=C`
no (0)

# fetch the recorded call for `Oc1c(Cl)cc(C(c2cc(Cl)c(O)c(Cl)c2)C(c2cc(Cl)c(O)c(Cl)c2)c2cc(Cl)c(O)c(Cl)c2)cc1Cl` here
yes (1)

Tell me the assay call for `COCCn1c(=O)[nH]c2cc(C(=O)N3CCN(c4ccccc4OC)CC3)ccc2c1=O` please.
yes (1)

Short answer needed: outcome of this test for `Cc1cc(CC(=O)O)n(C)c1C(=O)c1ccc(Cl)cc1` ?
no (0)

Please indicate how the test categorized `COc1ccccc1N1CCN(CCn2c(=O)[nH]c3c([nH]c4ccccc43)c2=O)CC1` .
no (0)

Which outcome was entered for the molecule O=C1C2C3c4ccccc4C(c4ccccc43)C2C(=O)N1c1nc(-c2ccccc2)cs1 (centres undefined) in this test?
yes (1)

---

target-system: Cytochrome P450 2C9 (Homo sapiens)
assay-info: Cytochrome panel assay with activity outcomes
test-context: recombinant CYP, pro-luciferin dealkylation, luminescence, p450-cyp2c9; series mostly up to 57.1 µM
In all, about 16,000 compounds went through this assay and about 4,000 (25%) were called active. About 26% were inconclusive and are not listed. The call rests on the fitted dose curve; in most records, active means well fitted curve in the direction sought with a large enough effect; inconclusive means small, poorly fitted or top-dose-only effect, or effect the other way; inactive means no such curve, though single readings can be large or run the other way. Only a sample is shown.
Please state which outcome applies, choosing from active, inactive

Record request — test call for `Cc1ccc(-n2nnnc2-c2cnc3ccc(Cl)cc3c2-c2ccccc2)cc1`
active

Which outcome did this test record for the compound `Clc1ccc2[nH]cc(-c3nnnn3-c3ccccc3)c2c1` ?
active

Name the outcome recorded for `COCC(=O)O[C@]1(CCN(C)CCCc2nc3ccccc3[nH]2)CCc2cc(F)ccc2[C@@H]1C(C)C` in the assay.
inactive

Tell me the recorded outcome of this test for `COc1ccc2[nH]cc(CCNc3ncncc3-c3ccccc3Cl)c2c1` .
active

Look up the recorded call for `COCCn1c(=O)c(-c2ccc(F)cc2)nc2cncnc21` in this test.
inactive

Kindly provide the recorded test outcome for the following compound: `COc1ccccc1CN1CC2(CCN(C(=O)c3ccncc3)CC2)C1`
inactive

What did this assay record as the result for `CC(C)SC(=N)N` ?
inactive

Recorded test outcome, item CC1=C(C(=O)OCc2ccccc2)C(c2ccc3ccccc3c2)NC(=O)N1CCCCCC(=O)O (stereo not given)
active

Look up the recorded call for `CC(C)C[C@H](NC(=O)[C@@H]1O[C@H]1C(=O)O)C(=O)NCCCCN=C(N)N` in this test.
inactive

Outcome? CCCN1C(=O)C(NC(C)=O)c2cc(OC)ccc21 (stereo not given)
inactive

Called result for COc1ccccc1C(c1nnnn1C(C)(C)C)N1CCN(Cc2ccncc2)CC1 (stereo not given)
active

Assay result, entry `NC(N)=[N+]1CCc2ccccc2C1` — outcome?
inactive

Give the logged outcome of this assay for the following compound: Cc1ccc(C2CC2C(=O)NN)cc1 (stereo not given)
active

For this compound, state the assay outcome: `CCn1cc(-c2nnnn2-c2ccc(Cl)cc2)c(=O)c2ccccc21`
inactive

Hello, I am checking results. What call was entered for `CSc1ccc2c(c1)[C@H](N1CCN(C)CC1)Cc1ccccc1S2` ?
inactive

Given `CC(C)NC(=O)N1CC2(CCN(C(=O)c3ccncc3)CC2)C1` , state the outcome it received in this test.
inactive

Call for entry CC1=C(C(=O)OCc2ccccc2)C(c2ccc([N+](=O)[O-])cc2)NC(=O)N1CCCCCC(=O)O (stereo not given) :
active

Please indicate how the test categorized `O=C(c1ccco1)N1CCC2(CCCN(Cc3ccccc3)C2)CC1` .
inactive

Assay outcome for `O=C(Nc1ccccc1)N1CCCC2(CCN(C(=O)c3csnn3)CC2)C1` : what was it?
inactive

// param item: `CS(=O)(=O)Nc1cccc(-c2cncnc2NCc2cccs2)c1` ; yields the recorded call
active

Name the outcome recorded for `CC(=O)c1c(C)nc(-c2ccccc2)n1O` in the assay.
inactive

In this assay, the call recorded for Cc1sc(NC(=O)c2ccco2)c(C(c2cccnc2)N2CCCC2)c1C (stereo not given) was what?
active

What did this assay record as the result for `CC(=O)c1cc2c(cc1NC(=O)CCCC(=O)O)OCO2` ?
inactive

Check the results log: what was the call for `COc1ccccc1CCn1c(=O)c(-c2ccc(F)c(F)c2)nc2cncnc21` ?
active

Which outcome was assigned to `CC(=O)Nc1c(C)nn(-c2ccc(C)c(C)c2)c1C` in this test?
inactive

Name the outcome recorded for `Oc1ccc(Cc2cc(Cl)cc(Cl)c2O)cc1Cl` in the assay.
active

Entry `O=C(OCc1nc2ccccc2s1)c1ccc(Br)s1` : call = ?
active

Hi, do you know how `O=C(Nc1c(C(=O)N2CCOCC2)cnn1-c1ccccc1)c1ccco1` came out in this test?
inactive

Would you mind telling me which call this test gave `CN1CCC[C@@H]1CCO[C@](C)(c1ccccc1)c1ccc(Cl)cc1` ?
inactive

Please state the recorded outcome for this compound: `Cn1c(=O)c(-c2ccc(F)cc2)nc2cncnc21`
inactive

Hi, do you know how `CN=C1N[C@H](c2ccccc2)N(c2ccccc2)S1` came out in this test?
inactive

Outcome? `COCCn1c(=O)c(-c2ccc(F)c(F)c2)nc2cncnc21`
inactive

Could you check what this test reported for COc1ccc(CNCCC(c2ccc(OC(C)C)cc2)C(C)C)cc1OC (stereo not given) ?
inactive

Record lookup: outcome of this test for COc1ccc(N2C(=O)CCC(C(=O)O)C2c2ccc(F)cc2)cc1 (stereo not given) ?
inactive

Look up the recorded call for `O=C(c1cnccn1)N1CCC2(CC1)CCN(C(c1ccccc1)c1ccccc1)CC2` in this test.
inactive

Answer briefly: the call reported for `O=C(c1ccco1)N1CCC2(CCCN(c3ccccc3)C2)CC1` in this assay.
inactive

Record request — test call for `Cn1c(SCC(=O)c2ccc3c(c2)Cc2ccccc2-3)nnc1-c1ccccc1`
active

Test call for this compound, please: `CC(C)OCCCN1CN(S(=O)(=O)c2cccc(Cl)c2)c2nc3ccccc3nc21`
active

Tell me the recorded outcome of this test for `C[C@@]12CCC(=O)C=C1CC[C@@H]1[C@@H]2[C@H](O)C[C@]2(C)[C@@H]1CC[C@]2(O)C(=O)CO` .
inactive

Give the logged outcome of this assay for the following compound: `CCOc1ccc(CC(=O)C2C(=O)CCCC2=O)cc1OCC`
active

For `COc1ccccc1CCn1c(=O)c(-c2ccccc2)nc2cncnc21` , what call appears in the results of this test?
active

Just curious, what result did O=S(=O)(c1ccccc1)N1CCCC1c1nc2ccccc2s1 (stereo not given) get here?
active

Which outcome was assigned to CCOC(=O)C1C(=O)NC(C)C1c1ccccc1 (stereo not given) in this test?
inactive

Dear colleague, could you share the recorded outcome for `COc1ccccc1CCn1c(=O)c(-c2cccc(Cl)c2)nc2cncnc21` when you have a moment?
active

Name the outcome recorded for `CC(=O)Nc1ccc(-c2nnc(SCC(=O)c3ccc4c(c3)Cc3ccccc3-4)n2C)cc1` in the assay.
active

Reference for the values: PubChem BioAssay AID1851
